- Test system: Saccharomyces cerevisiae
- Method summary: protein stability index of tFT-peptide fusion (C-terminal peptide) (PSI (0-1 scale)); higher = more stable (slower turnover);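 further: PSI is a weighted mean of sequencing reads over stability bins, variants kept only with over 10 reads, mCherry proximal and sfGFP distal, peptide attached via GGGS linker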
- Condition: genetic background: cdc53-1; temperature: 37 C
// not satisfied strictly below 0.5 in protein stability index; satisfied otherwise

Prompt line: Does the reported protein stability index for FFAFLRFFIFYW fall at or above the 0.5 mark?
Response line: not satisfied

Prompt line: Would you say LPNLPPTSPERH shows protein stability index at minimum 0.5?
Response line: satisfied

Prompt line: Say whether TVILVLFPSPFL shows protein stability index of 0.5 or more.
Response line: satisfied

Prompt line: Is it the case that VLVWLRLRVGLR has protein stability index reaching or exceeding 0.5?
Response line: not satisfied

Prompt line: Decide: protein stability index of GGWSFSSLWKIA >= 0.5?
Response line: satisfied

Prompt line: Determine whether measured protein stability index meets or exceeds 0.5 for YQFDGLVFLRLS
Response line: satisfied

Prompt line: # bool: protein stability index of YWRNYLVLVCKF >= 0.5
Response line: satisfied

Prompt line: Check if protein stability index >= 0.5 (inclusive). Item: VQLLTRLKTPHP
Response line: satisfied

Prompt line: Check if protein stability index >= 0.5 (inclusive). Item: AALFNYVVCFCA
Response line: satisfied

Prompt line: Record KRSPPPATPSSG ; criterion: protein stability index no lower than 0.5. Met?
Response line: satisfied

Prompt line: Is protein stability index for GAFAGDVWRCVV at or above 0.5?
Response line: satisfied

Prompt line: Test whether the sequence FVVFLLFFMLYH records protein stability index of 0.5 or higher.
Response line: not satisfied

Prompt line: Does the sequence TRPHPLRRVFIF have recorded protein stability index that is 0.5 or more?
Response line: satisfied

Prompt line: hey, is protein stability index for this one >= 0.5? SSGIGLFVWVYG
Response line: not satisfied

Prompt line: Dear colleague, could you confirm whether LVDSRIVWLFVS has protein stability index at or above 0.5?
Response line: satisfied

Prompt line: I'd appreciate it if you could say whether RYVFAFRRNYFC has protein stability index at least equal to 0.5.
Response line: satisfied

Prompt line: Item QYRLMQKKIVNI with protein stability index of 0.5 or above?
Response line: satisfied

Prompt line: Please check the record RLLLLLTCIIYI and state if its protein stability index is at or above 0.5.
Response line: not satisfied

Prompt line: Evaluate APPRLPLLSCSQ : protein stability index at minimum 0.5?
Response line: satisfied

Prompt line: Does FILLFGFSHWVW have a reported protein stability index of at least 0.5?
Response line: satisfied

Prompt line: Could you verify whether the entry INGINHKIIKIV shows protein stability index of no less than 0.5?
Response line: satisfied

Prompt line: Has RWCLELLWITSC a recorded protein stability index greater than or equal to 0.5?
Response line: not satisfied

Prompt line: Is it the case that SPRSIALLHLFS has protein stability index reaching or exceeding 0.5?
Response line: satisfied

Prompt line: Could you tell me if the measured protein stability index of RGSLLRWFLAAQ reaches 0.5 or more?
Response line: satisfied

Prompt line: Does FVLLCVLEFVAG have a reported protein stability index of at least 0.5?
Response line: not satisfied

Prompt line: Determine whether this sequence has protein stability index no lower than 0.5: AASRVIYLLNLF
Response line: satisfied

Prompt line: Decide: is the reported value of protein stability index for RAEASFFLPKVG equal to or greater than 0.5?
Response line: satisfied

Prompt line: Is protein stability index for FWMLCFLCRLTV at or above 0.5?
Response line: not satisfied

Prompt line: Please tell me: is the sequence VAFFSVFYWLEC at or over 0.5 in terms of protein stability index?
Response line: not satisfied

Prompt line: Hi team, for GPPVPLSPPLSP , is the recorded protein stability index at or above 0.5?
Response line: satisfied

Prompt line: Dear colleague, could you confirm whether VCAFCLFFVPLP has protein stability index at or above 0.5?
Response line: satisfied

Prompt line: Does LAVRSGFPFGLF have a reported protein stability index of at least 0.5?
Response line: satisfied

Prompt line: Please indicate if the recorded protein stability index for LGKSTLYMALNN meets or exceeds 0.5.
Response line: satisfied

Prompt line: Is reported protein stability index greater than or equal to 0.5 here: YLCCFSVAFFLG
Response line: not satisfied

Prompt line: Does the reported protein stability index for RFHFAAPPHRPS fall at or above the 0.5 mark?
Response line: satisfied

Prompt line: Is reported protein stability index greater than or equal to 0.5 here: LLLSLLVLRFFL
Response line: not satisfied

Prompt line: Can FLFFCGWVSLFG be said to have protein stability index at or above 0.5?
Response line: not satisfied

Prompt line: Textbook exercise: given the entry NYVFRIIIVLDA , state whether its protein stability index is greater than or equal to 0.5.
Response line: not satisfied

Prompt line: Does protein stability index meet or surpass 0.5 for RLDAPGLSRTEN ?
Response line: satisfied

Prompt line: Please check the record PIHILTHTYIGR and state if its protein stability index is at or above 0.5.
Response line: satisfied

Prompt line: Please tell me: is the sequence LVVFLRFFLRVL at or over 0.5 in terms of protein stability index?
Response line: not satisfied

====

- System: Saccharomyces cerevisiae
- Method summary: protein stability index of tFT-peptide fusion (C-terminal peptide) (PSI (0-1 scale)); higher = more stable (slower turnover)
- Condition: genetic background: wild type; temperature: 37 C
Measured endpoint: protein stability index
Just the number, please, no unit after it.

Lab book: protein stability index of RVCCLSFFFVFL noted as 0.551

Reported protein stability index ( MFRSEVSWKLCC ) = 0.409

So, GWLRHGWWRTVG ? Its protein stability index was 0.429

For this sequence ( RILFSPSTFYLF ), measured protein stability index is 0.487

Given item SVGWGFWARFIG , the value recorded as its protein stability index is 0.434

Value of protein stability index reported for the sequence PLLVVPVPRALY is 0.491

// TVILVLFPSPFL : protein stability index value = 0.597

For reference, reported protein stability index for GVGAISLGFSWL stands at 0.749

Quick note, protein stability index for VVVLLLVVWFCL landed at 0.391

Note to self: protein stability index recorded for LPPYPPPVPILI was 0.489

====

- System: Saccharomyces cerevisiae
- Method summary: protein stability index of tFT-peptide fusion (C-terminal peptide) (PSI (0-1 scale)); higher = more stable (slower turnover)
- Condition: genetic background: wild type; temperature: 30 C
Measured endpoint: protein stability index
// response body must contain only the number

Sure, the documented protein stability index for VRLSQVNRLICT is 0.426

FIFCLSCGVWGG has a reported protein stability index of 0.466

Reported protein stability index of YHFRLLVTCCPC : 0.257

Reported protein stability index for VVLGLFCVRMGT was 0.451

Input CCSGWSVRLLCV . Output protein stability index: 0.269

GRLRLGVLCGGV has a reported protein stability index of 0.472

Sure, the documented protein stability index for NTYKICVVSVTS is 0.299

Memo: PPSPPPPPPSPF , reported protein stability index: 0.679

Entry PPRPLHPPCRPP — recorded protein stability index = 0.657

Query FFRFCFLLLASS yields protein stability index of 0.188

====

- System: Saccharomyces cerevisiae
- Method summary: protein stability index of tFT-peptide fusion (C-terminal peptide) (PSI (0-1 scale)); higher = more stable (slower turnover)
- Condition: genetic background: wild type; temperature: 30 C
Assignment: determine reported protein stability index for the given sequences.

For record GCSFVLCRGSNA the listed protein stability index is 0.675

Value of protein stability index reported for the sequence RPTSTHQPASPS is 0.684

protein stability index reading for SPFPAPCVFPSR : 0.761

The recorded protein stability index for PLPSPPAPNSPQ is 0.679

Consider PPPPPPRPPSSP . Its measured protein stability index is 0.694

// sample GSFPNSADQTFD , its protein stability index was 0.659

Kindly note the recorded protein stability index for NTGGVTRVIGCV , which is 0.704

Entry under test: RVPPPTSPPSPP . Its protein stability index was 0.694

The sequence identified as AHQRSRRPKPSR registered its protein stability index at 0.65

Recorded protein stability index (sequence AFRFHTYFLLLC ): 0.0812

Query GVGCGGACRPVG yields protein stability index of 0.662

response.value for KKKKKKVRYIRI (field: protein stability index) = 0.671

// sample PPPLPPPSPSRP , its protein stability index was 0.421

Noted for RCTPPPPTPPAT : its protein stability index reads 0.683

response.value for KKKTKNGKEKRR (field: protein stability index) = 0.7

Form field protein stability index, entry GPGYVFVGSGGW : 0.692

protein stability index reading for PPPPPPPPPSPP : 0.704

Lookup result for PPSPPPPSRPIH ; measured protein stability index: 0.776

What the record says about GEGRGDGEEGTG : protein stability index is 0.679
